Task for the reader: assign each of the following sequences its reported sensor-assay potency score (higher = more potent).
biological target: PPP1R13B; assay: pooled miR-30 sensor sort-seq; sequence = guide strand; details: shRNA
Give bare numbers.

Please review the following examples before continuing.
// query Name the recorded sensor-assay potency score (higher = more potent) for TTGCTGTAGTCGACTTGTCCTC .
// result -0.682

// query What do you get for TTCTACAACATCTCGACAGGTT ?
// result 0.568

// query Entry to check: TTTCTTCAGCTTGTTCTCCTGG
// result 0.329

// query Now the same for TACACTGCTTTAACTGACTTAT
// result -0.93

More entries:
// query Which sensor-assay potency score (higher = more potent) value belongs to TTCAGAAATAGACTGCTGCTGA ?
// result 0.172

Reference for the values: the OligoGym collection
